assay: yeast display, Sf9 membrane polyspecificity reagent, FACS + sequencing; frameworks hold sequencing errors
measured-property: polyreactivity (PSR sort gate)

query-sequence	polyreactivity (PSR sort gate)
QVQLVESGGGLVQAGGSLRLSCAASGRTFWYYAMGWYRQAPGKERELVATISYRGGSTYYADSVKGRFTISRDNAKNTVYLQMNSLKPEDTAVYYCAAKQWWGGRPKVDYWGQGTQVTVSS	high polyreactivity
QVQLVESGGGLVQAGGSLRLSCAASGSTFDDNAMGWYRQAPGKERELVASITYRGGSTYYADSVKGRFTISRDNAKNTVYLQMNSLKPEDTAVYYCNADYTGAEYDYWGQGTQVTVSS	low polyreactivity
QVQLVESGGGLVQAGGSLRLSCAASGSTFPSYAMGWYRQAPGKERELVAAINSGGGTNYADSVKGRFTISRDNAKNTVYLQMNSLKPEDTAVYYCATDDPLSQINEQGMDYWGQGTQVTVSS	low polyreactivity
QVQLVESGGGLVQAGGSLRLSCAASGSIFSGYAMGWYRQAPGKESDLVAAISGSGGSTFYADSVKGRFTISRDYAKNTVYLQMNSLKPEDTAVYFCAARRIAPYGRYDYWGQGTQVTVSS	low polyreactivity
QVQLVESGGGLVQAGGSLRISCAASGSTFFYYSMGWYRQAPGKEWEFVAHITSSDASTHYADSVKGRFTISRDNAKNTVNLQMNSQQPEDTAVYYCAADRYCGQANYYWGQGTQVTVSS	low polyreactivity
QVQLVESGGGLVQAGGSLRLSCAASGFTFGWYTMGWYRPAPGKERELVAAISLNGGSTYYADSVKGRFTISRDNAKNTVYLQMNSLKPEDTAVYYCAIGYRWPYYPYDYWGQGTQVTVSS	low polyreactivity
QVQLVESGGGLVQAGGSLRLSCAPSGRTLYGYAMGWYRQAPGKVSALVASFRSGGSTNYADSVKGRFTISLDNAKNTVYLQMNSLKPEDTAVYYCAADPYYSYGYYHAHGRDDGYWGQCTQVTVSS	low polyreactivity
QVQLVESGGGLVQAGGSLRLSCAASGRIFGYYAMGWYRQAPGKERELVAAITWSGGTYYADSVKGRFTISRDNAKNTVYLQMNSLKPEDTAVYYCAKSVRNGWQSRFGYWGQGTQVTVSS	high polyreactivity
QVQLGESGGGLVQAGGSLRLSCAASGFTFTHYSMGWYRQAPGKERELVAAISTSGGSTYYADSVKGRFTISRDTAKNSVYLQMNSLKPEDTAVYYCAARRDGCVLWGYYYWGQGTQVTVSS	low polyreactivity
QVQLVESGGGLVQAGGSLRLSFAASGSNFAVKAMGLNTPAPGKERELVATITRRDGSTYYADSVKGRFTISRDNAKYTVYLQLNSLKPEDTAVYYCNARLKRTYDYWGQGTQVTVSS	high polyreactivity

Incoming: I would be grateful if you could share the reported polyreactivity (PSR sort gate) for QVQLQESGGGLVQAGGSLRLSCAASGNIVDADIMGWYRQAPGKERELVASITDGGSTNYADCVKGRFTISRDNAKNTVYLKMNSLKPEDTAVYYCAAIAYPDIPTYFDYDSEYFYWGQGTQVTVSS .
Outgoing: low polyreactivity

###

assay: yeast display, Sf9 membrane polyspecificity reagent, FACS + sequencing; frameworks hold sequencing errors
measured-property: polyreactivity (PSR sort gate)

query-sequence	endpoint-value
QVQIVESGGGLVQAGGSLRLSCAASGRISVFNAMGWYRQAPGKERELVAAITSGGSTNYADSVKGRFTISRDNAKNTVYLQMNSLKPEDTAVYYCNADVYHSHEPHYDYWGQGTQVTVSS	low polyreactivity
QVQLVESGGGLVQAGGSLRLSCAASGLTFKDNVMGWYRQAPGKERELVAAISSSGGSTYYADSVKGRFTLSRDNAKNTVYLQMNSLKPEDTAVYYCAAPTFSRYYYWGQGTQVTVSS	high polyreactivity
QVQLVESGGGLVQAGGSLRLSCAASGRIFTTNAMGWYRQAPGKERELVAAITYSGGTTYYADSVKGRFTISRDNAKNTVYLQLNSLNPEDTAVYYCAADVKFSTPYDYWGQGSQVTVSS	low polyreactivity
QVQLVESGGGLVQAGGSLRLSCAASGRIFGYYAMGWYRQAPGKERELVATITFGGGSTYYADSVKGRFTISRDNAKNTVYLQMNSLKPEDTAVYFCAADSGYLGIYGDEYSWGQGTQVTVSS	low polyreactivity

Incoming: Fill in: polyreactivity (PSR sort gate) of QVQLVESGGGLVQAGGSLRLSCAASGLTFWVYTMGWYRQAPGKERELVAAITRGGSTTYADSVKGRFTISRDNAKNSVYLQMNSLQPEDTAVYYCNAVYKYSVVYKLDYWGQGTQVTVSS is ___
Outgoing: high polyreactivity

###

experiment: yeast display, Sf9 membrane polyspecificity reagent, FACS + sequencing; frameworks hold sequencing errors
measured-property: polyreactivity (PSR sort gate)

query-sequence	measured-property	endpoint-value
QVQLVESGGGLVQAGGILRLSCAASGSIFKYYAMGWYRQAPGKERELVADISFGGDSTYYADSVKGRFTISRDNAKNTVYLQMNSLIPEDTAVYYCAAARYFWFVEYDYWGQGTQVTVSS	polyreactivity (PSR sort gate)	low polyreactivity
QVQIVESGGGLVQAGGSLRLSCAASGGTFYVNDMGWYRQAPGKERELVATITYSGTSTYYADSVKGRFTISRDNAKNTVYLHMNSLKPEDTAVYYCATDVLLYFEPVNLEYWGQGTQVTVSS	polyreactivity (PSR sort gate)	low polyreactivity
QVQLVESGGGLVQAGGTLRLSCAASGFTLSVYAMGWYIQAPGKDRELVAAITRSTGSTYYADSVKGRFTISRDNAKNTVYLQMNSLKPEDTAVYYCNAGHFAHHHGYYRSKYDYWGQGTQVTVSS	polyreactivity (PSR sort gate)	low polyreactivity
QVQLVESGGGLVQAGGSLRLSCYASGFIFHSYAMGWYRQAPGKERELVASISRGGGSTYYADSVKGRFTISRDNAKNTVYLQKNSLKPEDTPVYYCNAVWRSNSRFDYWGQCTQVTVSS	polyreactivity (PSR sort gate)	high polyreactivity

Incoming: Which polyreactivity (PSR sort gate) reading was recorded for the sequence QVQIVESGGGLVQAGGSLRLSCAASGRTFRVNAMGWYRQAPGKERELVAAISSSGGSTYYADSVKGRFTISRDNAKNTVYLQMNSLKPEDTAVYYCAAVVGGYRYDYLGQGTQVTVSS ?
Outgoing: high polyreactivity

###

test: yeast display, Sf9 membrane polyspecificity reagent, FACS + sequencing; frameworks hold sequencing errors
measured-property: polyreactivity (PSR sort gate)

Look over these answered cases.
query-sequence	measured-property	endpoint-value
QVQLVESGGGLDQAGGRLRLSSAASGTTFAVNAMGWYRQAPGKERELVAAITSGGSTKYADSVKGRFTISRDNAKYSVYFQMNSLKREDSAVYYIPDSKLWALGWKFYYWGQGTQVTVSS	polyreactivity (PSR sort gate)	low polyreactivity
QVQLVESGGGLVQAGGSLRLSCAASGSIFYPYVMGWYRQAPGKERELVAAITTSVGSTYYADSVKGRFTISRDNAKNTVYLQMNSLKPEDTAVYYCAAIYFGSRRPGRYNYWGQGTQVTVSS	polyreactivity (PSR sort gate)	high polyreactivity
QVQLVESGGGLVQAGGSLRLSCAASGSIFDSKAMGWYRQAPGKERELVAAISQGGDDTYYADSVKGRFTISRDNAKNTVYLQMNSLKPEDTAVYYCAAEFFYITGAYDYWGQGTQVTVSS	polyreactivity (PSR sort gate)	low polyreactivity
QVQLVESGGGLVQAGGSLRLSCAASGRIFPYNAMGWYRQAPGKERELVATNTSGRSTYYADSVKGRFTISRDNAKNTVDVPLNSLKPEDTAVYYCAARYPSIYYYRYDYWGQGTQVTVSS	polyreactivity (PSR sort gate)	high polyreactivity

Consider the additional sequence presented here.
Incoming: If you can, please state the reported polyreactivity (PSR sort gate) value of QVQLVESGGGLVQAGGSLRLSCAASGRTFSPNTMGWYRQAPGKEREFVAAITASGDSTYYADSVKGRFTISRDNAKNTVYLQMNSLKPEDTAVYYCDTDSNWYWGFNYWGQGTKVTVSS .
Outgoing: low polyreactivity

###

assay: yeast display, Sf9 membrane polyspecificity reagent, FACS + sequencing; frameworks hold sequencing errors
measured-property: polyreactivity (PSR sort gate)

For orientation, consider the following solved cases.
query-sequence	polyreactivity (PSR sort gate)
QVQLVESGGGLVQAGGSHRLSCAASGRTFGYNAMGWYRQAPGKERELVAAISRSGGRTYYADSVKGRFTISRDNAKNTVYLHMNRLKPEDTAVYYCAAESYHRGYDYWGQGTQVTVSS	high polyreactivity
QVQLVESGGGLVQAGGSLRLSCAASGFIFAYYAMGWYRQAPGKERELVAAITNSGGSTYYADSVKGRFTISRDNAKNTVYLQMNSLKPEDTAVYYCNALHRIRYTPSSRYDYWGQGTQVTVSS	low polyreactivity
QVQLVESGGGLVQAGGSLRLSCAASGRTFGGNVRVWYRQAPGKERELVAAISYSGRSTHYAESVKGRFTISRDNAKNTVILQMNSLKPEDTAVYYCNKPFPYYPDGPNGYDYWGQGTKVTVSS	low polyreactivity
QVQLVESGGGLVQAGGSLRLSCAASGPTFRANAMGWYRQAPGKEREMVAAISQRGGNTYYADSVKGRFTISRDKAKNTVYLQMNSLKPEDTAVYYCSADITTYRRGRYEYEYWGQGTQVTVSS	high polyreactivity

Here's the next entry for you.
Incoming: Return reported polyreactivity (PSR sort gate); argument: QVQLVESGGGLVQAGGSLRLSCAASGSISVANAMGWYRQAPGKERELVAAITDSGDDTYYADSVKGRFTISRDNAKNTVYLQMNSLKPEDTAVYYCAVEAWSVPPYDYWGQGTIVTVSS
Outgoing: low polyreactivity
